- assay details: yeast display, Sf9 membrane polyspecificity reagent, FACS + sequencing; frameworks hold sequencing errors
result type: polyreactivity (PSR sort gate)

Observe how each entry below is paired with its result.
Incoming: # lookup: polyreactivity (PSR sort gate) of QVQLVESGGGLVQAGGSLRLSCAATGSTFYHYAMGWYRQAPGKEREFVAAISTSGGRTYYADSVKGRFTISRDNAKNTVYLQMNSLKPEDTAVYYCAARPGSWYPSVPSYNYWGQGTQVTVSS
Outgoing: low polyreactivity

Incoming: Cool, now QVQLVESGGGLVQAGGSLRLSCAASGIIFKYYAMGWYRQAPGKERELVAAISWTGDSTYADSVKGRFTISRDNAKNTVYLQMNSLKPEDTAVYYCAVAFRRVRSLGEGYWGQGTQVTVSS
Outgoing: low polyreactivity

Incoming: Cool, now QVQLVESGGGLVQAGGSLRLSCAASGIIFTSNTMGWYRPAPGKEREFVASINWNGSSTYADSVKGRFTISRDNAKNTVYLQMYSLKPDDTAVYYCNADSNRNSVQFSLYDYWGQGTQVTVSS
Outgoing: low polyreactivity

Incoming: Cool, now QVQLVESGGGLVHAGGSLLLSCSASRSIFDLYAMGGYRQAPGKERELVADISIADSTNYADSVKGRFTISRDNAKNTVYLKMNSLKPEDTAVYYCKDDVWWYCYEYDYWGQGTEVTVSS
Outgoing: low polyreactivity

Please look at the following sequence next.
Incoming: # lookup: polyreactivity (PSR sort gate) of QVQLVESGGGLVQAGGRLRLSCAASGSIFGRNAMGWYRAAPGKERELVAAITGSTYYADSVKGRFTSSRDNAKNTVYLQMNSLKPEDTAVYYCNADYDVGWTYDTEYNYWGQGTQVTVSS
Outgoing: low polyreactivity
